Tested on: Mycobacterium tuberculosis
Assay: Cornell - Phenotypic assay to identify agents that inhibit growth of Mycobacterium tuberculosis
Format: functional
Design: scale not given: direction of the effect not stated beside the values
Conditions: 10 mM as filed; unlikely as a test dose
Screen size: about 53,000 compounds; about 900 (1.7%) showed an effect of 50% or more. Only a selection was taken, and strong results are over-represented in it overall.
For each of the molecules below, state its Percent Effect.
Supply the numeric figure in %, leaving out any unit text.

Give reported Percent Effect value for O=C(c1ccc[nH]1)N1CCOCC2(C1)CN(c1ccccc1)C(=O)CO2 (stereo unspecified)
34.74

Give reported Percent Effect value for CC(NC(=O)N1CCNC(=O)CC1)c1ccc(OC(F)F)cc1 (stereo unspecified)
-26.09

Give reported Percent Effect value for C=Cc1cccc(CN(Cc2cnn(C)c2)C2CC2)c1
14.04

Give reported Percent Effect value for O=C(CN1CC(c2nc(-c3ccco3)no2)C1)NCc1ccc(F)cc1.O=C(O)C(=O)O
26.13

Give reported Percent Effect value for Cc1nc(CCC(N)=O)cc(C2CCCCN2S(C)(=O)=O)n1 (stereo unspecified)
34.9

Give reported Percent Effect value for CCCS(=O)(=O)N1CCC(NC(=O)c2cc(CC)c(C)s2)CC1
-14.58
